Target: murine CCR2 (Mus musculus, UniProt P51683)
Construct: host or cells: U2OS β-arrestin cell line
Sequence (P51683 whole entry): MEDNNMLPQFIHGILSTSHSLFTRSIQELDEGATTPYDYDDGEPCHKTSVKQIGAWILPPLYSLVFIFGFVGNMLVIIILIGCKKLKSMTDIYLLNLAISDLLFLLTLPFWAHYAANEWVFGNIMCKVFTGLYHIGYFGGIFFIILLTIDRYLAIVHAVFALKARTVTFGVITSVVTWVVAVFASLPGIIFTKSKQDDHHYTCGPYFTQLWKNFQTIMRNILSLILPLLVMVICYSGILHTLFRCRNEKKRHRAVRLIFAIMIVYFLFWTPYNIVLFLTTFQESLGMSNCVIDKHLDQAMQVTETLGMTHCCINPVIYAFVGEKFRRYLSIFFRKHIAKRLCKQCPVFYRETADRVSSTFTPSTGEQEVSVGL
Test: Functional β-arrestin recruiting test with human MCP-1 (B-2a)
Assay type: cell-based
Settings: U2OS β-arrestin cell line transfected with murine CCR2; agonist human MCP-1 at EC50 (about 3 nM); in some cases means of several determinations
Just a reminder that ties go to not satisfied: only IC50 strictly below 200 nM counts as satisfied.

Worked examples follow.
                               samplesmiles                               studytarget  assignedclass
0  O=c1[nH]nc(Cc2nc(C(F)(F)F)c(Cc3ccc(Cl)c(Cl)c3)c(=O)[nH]2)o1  murine CCR2 (Mus musculus, UniProt P51683)  not satisfied
1  O=c1[nH]c(Cc2ccccn2)nc(C(F)(F)F)c1Cc1ccc(Cl)c(Cl)c1  murine CCR2 (Mus musculus, UniProt P51683)  not satisfied
2  O=c1[nH]c(-n2cccn2)nc(C(F)(F)F)c1Oc1ccc(Cl)c(C(F)(F)F)c1  murine CCR2 (Mus musculus, UniProt P51683)      satisfied

A record lists O=c1[nH]c(-c2ncccc2Cl)nc(C(F)(F)F)c1Oc1cccc(Cl)c1 . Is its IC50 below 200 nM?
satisfied

---

Molecular target: murine CCR2 (Mus musculus)
Construct: host or cells: U2OS β-arrestin cell line
Test: Functional β-arrestin recruiting test with murine MCP-1 (B-2b)
Assay type: cell-based
Settings: U2OS β-arrestin cell line transfected with murine CCR2; agonist murine MCP-1; in some cases means of several determinations
measurementKind: IC50
Reply with the number and its unit after it.

Worked cases, answers included:
>>> df
                                   compound  measurementkind    value
0  O=c1[nH]c(-c2ncccc2C(F)(F)F)nc(C(F)(F)F)c1Oc1ccc(Cl)c(Cl)c1 [Example 185]             IC50   405 nM
1  Nc1ccc(-c2nc(C(F)(F)F)c(Oc3ccc(Cl)c(Cl)c3)c(=O)[nH]2)nn1 [Example 121]             IC50   149 nM
2  CNc1ccnc(-c2nc(C(F)(F)F)c(Oc3ccc(Cl)c(Cl)c3)c(=O)[nH]2)c1 [Example 168]             IC50  1210 nM
3  Nc1ccc(-c2nc(C(F)(F)F)c(Oc3ccc(Cl)c(C(F)(F)F)c3)c(=O)[nH]2)nc1 [Example 113]             IC50    16 nM
4  COc1ncccc1-c1nc(C(F)(F)F)c(Oc2ccc(Cl)c(C(F)(F)F)c2)c(=O)[nH]1 [Example 37]             IC50   122 nM
5  O=c1[nH]c(-c2cnccn2)nc(C(F)(F)F)c1Oc1ccc(Cl)c(C(F)(F)F)c1 [Example 132]             IC50   259 nM
6  CNc1ccnc(-c2nc(C(F)(F)F)c(Oc3ccc(Cl)c(C(F)(F)F)c3)c(=O)[nH]2)c1 [Example 169]             IC50   624 nM
7  O=c1[nH]c(-c2ccncc2Cl)nc(C(F)(F)F)c1Oc1ccc(Cl)c(C(F)(F)F)c1 [Example 131]             IC50   158 nM
8  O=c1[nH]c(-c2ncccc2Cl)nc(C(F)(F)F)c1Oc1ccc(F)c(Cl)c1 [Example 14]             IC50   260 nM
9  COc1ccnc(-c2nc(C(F)(F)F)c(Oc3ccc(Cl)c(Cl)c3)c(=O)[nH]2)c1 [Example 147]             IC50   373 nM

Could you share which IC50 value was measured for COc1cccc(-c2nc(C(F)(F)F)c(Oc3ccc(Cl)c(C(F)(F)F)c3)c(=O)[nH]2)n1 [Example 149] ?
526 nM

Repeat with COc1cccnc1-c1nc(C(F)(F)F)c(Oc2ccc(Cl)c(C(F)(F)F)c2)c(=O)[nH]1 [Example 40]
44 nM

Entry to check: CC(C)Oc1ccnc(-c2nc(C(F)(F)F)c(Oc3ccc(Cl)c(Cl)c3)c(=O)[nH]2)c1 [Example 145]
2810 nM

Also check O=c1[nH]c(-c2n[nH]c3ccccc23)nc(C(F)(F)F)c1Oc1ccc(Cl)c(Cl)c1 [Example 139]
229 nM

Entry to check: COc1ccc(-c2nc(C(F)(F)F)c(Oc3ccc(Cl)c(C(F)(F)F)c3)c(=O)[nH]2)nc1 [Example 119]
185 nM

---

Molecular target: human CCR2 (Homo sapiens, UniProt P41597)
Sequence (P41597 1-360 isoform P41597-2): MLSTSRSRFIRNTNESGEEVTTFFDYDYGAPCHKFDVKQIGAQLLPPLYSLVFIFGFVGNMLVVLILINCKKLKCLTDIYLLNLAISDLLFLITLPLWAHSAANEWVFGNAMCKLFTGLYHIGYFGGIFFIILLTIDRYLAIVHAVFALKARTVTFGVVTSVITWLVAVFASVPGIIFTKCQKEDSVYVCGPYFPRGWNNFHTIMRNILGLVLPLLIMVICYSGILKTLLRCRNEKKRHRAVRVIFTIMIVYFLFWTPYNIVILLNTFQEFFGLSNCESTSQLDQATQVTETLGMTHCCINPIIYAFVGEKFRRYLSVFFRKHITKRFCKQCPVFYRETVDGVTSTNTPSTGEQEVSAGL
Assay: Functional Ca2+ release test (B-1)
Conditions: Chem-1 cell line transfected with human CCR2; 50% inhibition of the MCP-1 effect, MCP-1 at EC50 (about 5 nM); in some cases means of several determinations
measurementKind: pIC50
Kindly note that pIC50 refers to -log10 of the concentration in mol/L and answer with the value alone.

Sample records with pIC50:
                               samplesmiles  measurementkind  value
0  COc1cccnc1Nc1nc(C(F)(F)F)c(Oc2ccc(Cl)c(C(F)(F)F)c2)c(=O)[nH]1            pIC50   7.30
1  COc1cccc(-c2nc(C(F)(F)F)c(Oc3ccc(Cl)c(Cl)c3)c(=O)[nH]2)n1            pIC50   7.77
2  O=c1[nH]c(-n2cncn2)nc(C(F)(F)F)c1Oc1ccc(Cl)c(Cl)c1            pIC50   7.42

Look up pIC50 with human CCR2 (Homo sapiens, UniProt P41597) for this molecule: O=c1[nH]c(-c2nc(C(F)(F)F)c(Oc3ccc(Cl)c(Cl)c3)c(=O)[nH]2)ns1
8.11

---

Molecular target: human CCR2 (Homo sapiens)
Experiment: Functional Ca2+ release test (B-1)
Conditions: Chem-1 cell line transfected with human CCR2; 50% inhibition of the MCP-1 effect, MCP-1 at EC50 (about 5 nM); in some cases means of several determinations
pIC50 values for the compounds below.
FYI, pIC50 means -log10 of a concentration in mol per litre.

Please look up its pIC50: O=c1[nH]c(-c2noc(C(F)(F)F)n2)nc(C(F)(F)F)c1Oc1ccc(Cl)c(Cl)c1 [Example 84]
8.04

---

Molecular target: murine CCR2 (Mus musculus)
Construct: host or cells: U2OS β-arrestin cell line
Test: Functional β-arrestin recruiting test with murine MCP-1 (B-2b)
Type: cell-based
Details: U2OS β-arrestin cell line transfected with murine CCR2; agonist murine MCP-1; in some cases means of several determinations
Listed here are compounds together with their documented IC50.

                               samplesmiles                 studytarget  measurementkind    value
0  CCc1cccc(-c2nc(C(F)(F)F)c(Oc3ccc(Cl)c(Cl)c3)c(=O)[nH]2)n1  murine CCR2 (Mus musculus)             IC50  1070 nM
1  O=c1[nH]c(-c2ncccc2F)nc(C(F)(F)F)c1Oc1ccc(Cl)c(Cl)c1  murine CCR2 (Mus musculus)             IC50   144 nM
2  O=c1[nH]c(-c2cccnn2)nc(C(F)(F)F)c1Oc1ccc(Cl)c(C(F)(F)F)c1  murine CCR2 (Mus musculus)             IC50    73 nM

Now look at this one.
# input compound: COc1cccnc1-c1nc(C(F)(F)F)c(Oc2ccc(Cl)c(OC(F)(F)F)c2)c(=O)[nH]1 ; wanted: its IC50
412 nM

---

Listed next: entries and their corresponding pIC50.
Target: murine CCR2 (Mus musculus, UniProt P51683)
Construct: host or cells: U2OS β-arrestin cell line
Experiment: Functional β-arrestin recruiting test with human MCP-1 (B-2a)
Assay type: cell-based
Details: U2OS β-arrestin cell line transfected with murine CCR2; agonist human MCP-1 at EC50 (about 3 nM); in some cases means of several determinations
Answer as the number alone; pIC50 is minus log10 of concentration in mol/L.

                               samplesmiles                               studytarget  measurementkind  value
0  O=c1[nH]c(-c2ncccc2F)nc(C(F)(F)F)c1Cc1ccc(Cl)c(Cl)c1  murine CCR2 (Mus musculus, UniProt P51683)            pIC50   7.37
1  CCOC(=O)c1nc(-c2nc(C(F)(F)F)c(Oc3ccc(Cl)c(Cl)c3)c(=O)[nH]2)no1  murine CCR2 (Mus musculus, UniProt P51683)            pIC50   6.92

Entry under review: O=c1[nH]c(Cc2ccno2)nc(C(F)(F)F)c1Cc1ccc(Cl)c(Cl)c1 . Reported pIC50?
6.80

Now give it for Cc1nc(Cc2nc(C(F)(F)F)c(Cc3ccc(Cl)c(Cl)c3)c(=O)[nH]2)cs1 too.
5.96

---

Molecular target: human CCR2 (Homo sapiens)
Assay: Functional Ca2+ release test (B-1)
Conditions: Chem-1 cell line transfected with human CCR2; 50% inhibition of the MCP-1 effect, MCP-1 at EC50 (about 5 nM); in some cases means of several determinations
measurementKind: pIC50
In plain terms, pIC50 is the concentration in mol/L turned into minus its base-10 logarithm.

A selection of reference data follows.
                               samplesmiles  value
0  CN(C)c1ccc(-c2nc(C(F)(F)F)c(Oc3ccc(Cl)c(Cl)c3)c(=O)[nH]2)nn1   8.92
1  COc1ccnc(-c2nc(C(F)(F)F)c(Oc3ccc(Cl)c(C(F)(F)F)c3)c(=O)[nH]2)c1   8.09
2  O=c1[nH]c(Nc2cn[nH]c2)nc(C(F)(F)F)c1Oc1ccc(Cl)c(C(F)(F)F)c1   8.03

Please examine the following record next.
Could you share which pIC50 value was measured for O=c1[nH]c(-c2ccon2)nc(C(F)(F)F)c1Oc1ccc(Cl)c(Cl)c1 ?
9.30
